Recorded Residual activity [%] values for a group of binders are listed next.
Target: T1, VLP2 (virus-like particles of AAV2) (AAV2, UniProt P03135 1-735; P03135 1-598; P03135 1-533)
T1 construct: Empty AAV2 capsid; background says about 60 protein molecules, VP1:VP2:VP3 = 1:1:10; Immobilised on the ELISA plate
T1 sequence (P03135 whole entry, chain 1 of 3): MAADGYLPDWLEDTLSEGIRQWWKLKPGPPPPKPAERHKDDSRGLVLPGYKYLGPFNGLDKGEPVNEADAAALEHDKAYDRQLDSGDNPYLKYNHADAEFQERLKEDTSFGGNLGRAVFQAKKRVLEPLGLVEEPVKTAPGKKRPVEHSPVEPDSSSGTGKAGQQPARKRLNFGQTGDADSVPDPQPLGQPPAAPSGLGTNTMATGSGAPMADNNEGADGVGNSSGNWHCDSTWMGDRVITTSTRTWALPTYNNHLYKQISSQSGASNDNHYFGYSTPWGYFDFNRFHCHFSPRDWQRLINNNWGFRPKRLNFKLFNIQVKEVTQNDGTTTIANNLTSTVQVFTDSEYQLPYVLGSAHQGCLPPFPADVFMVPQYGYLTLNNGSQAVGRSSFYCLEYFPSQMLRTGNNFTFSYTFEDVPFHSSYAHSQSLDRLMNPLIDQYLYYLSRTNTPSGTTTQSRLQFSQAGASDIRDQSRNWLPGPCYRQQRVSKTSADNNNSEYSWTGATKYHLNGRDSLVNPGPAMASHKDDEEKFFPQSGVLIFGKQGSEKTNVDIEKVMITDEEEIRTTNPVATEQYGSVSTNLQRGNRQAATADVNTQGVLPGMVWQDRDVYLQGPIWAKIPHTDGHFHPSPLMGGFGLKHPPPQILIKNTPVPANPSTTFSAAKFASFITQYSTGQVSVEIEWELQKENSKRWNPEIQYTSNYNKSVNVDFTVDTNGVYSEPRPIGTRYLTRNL
T1 sequence (P03135 139-735, tags left off, chain 2 of 3): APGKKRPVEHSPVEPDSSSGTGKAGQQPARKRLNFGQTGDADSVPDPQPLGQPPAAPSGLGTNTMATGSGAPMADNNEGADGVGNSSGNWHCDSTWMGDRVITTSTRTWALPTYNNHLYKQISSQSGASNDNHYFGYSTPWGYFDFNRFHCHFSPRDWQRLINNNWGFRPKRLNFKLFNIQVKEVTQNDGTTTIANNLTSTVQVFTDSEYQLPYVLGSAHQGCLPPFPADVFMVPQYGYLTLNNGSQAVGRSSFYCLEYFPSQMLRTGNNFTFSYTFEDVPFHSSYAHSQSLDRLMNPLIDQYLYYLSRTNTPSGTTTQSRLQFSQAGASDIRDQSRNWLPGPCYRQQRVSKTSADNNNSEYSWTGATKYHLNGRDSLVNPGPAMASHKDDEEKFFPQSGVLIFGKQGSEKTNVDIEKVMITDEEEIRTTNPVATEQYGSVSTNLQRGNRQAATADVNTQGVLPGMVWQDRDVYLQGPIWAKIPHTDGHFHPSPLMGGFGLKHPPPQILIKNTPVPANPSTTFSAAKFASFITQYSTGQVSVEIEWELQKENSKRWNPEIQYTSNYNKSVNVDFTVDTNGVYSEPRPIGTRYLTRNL
T1 sequence (P03135 203-735, chain 3 of 3): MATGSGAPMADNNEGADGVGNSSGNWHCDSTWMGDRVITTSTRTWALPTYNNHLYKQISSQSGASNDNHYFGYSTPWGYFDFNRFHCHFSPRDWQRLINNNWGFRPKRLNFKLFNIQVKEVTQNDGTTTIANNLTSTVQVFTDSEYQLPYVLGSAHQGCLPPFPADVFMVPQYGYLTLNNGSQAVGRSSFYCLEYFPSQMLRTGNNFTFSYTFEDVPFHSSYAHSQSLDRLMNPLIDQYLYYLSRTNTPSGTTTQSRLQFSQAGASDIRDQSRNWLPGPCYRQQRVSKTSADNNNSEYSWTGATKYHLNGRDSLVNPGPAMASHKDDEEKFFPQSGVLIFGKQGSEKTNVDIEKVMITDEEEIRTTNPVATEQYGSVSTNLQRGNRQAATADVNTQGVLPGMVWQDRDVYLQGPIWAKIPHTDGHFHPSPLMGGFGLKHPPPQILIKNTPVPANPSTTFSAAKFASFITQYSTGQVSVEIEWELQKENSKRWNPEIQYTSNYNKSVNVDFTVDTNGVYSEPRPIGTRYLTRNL
Experiment: ELISA on VLP2; A450 after pH 2.5 30°C 24 h / untreated
Response body: numeric value in %, unit text excluded.

Answered examples (2):
binder="AAV-binding protein No. 49 (Tyr331Cys, Thr343Met, Tyr355Cys) (receptor) MGSAGESVQITLPKNEVQLNACVLQEPPKGETYMYDWQLITHPRDCSGEMEGKHSQILKLSKLTPGLYEFKVIVEGQNAHGEGYVNVTVKPEPRKNRPPIAIVSPQFQEISLPTTSTVIDGSQSTDDDKIVQYHWEELKGPLREEKISEDTAILKLSKLVPGNYTFSLTVVDSDGATNSTTANLTVNKAVDHHHHHH" reported_metric="Residual activity [%]" measured_number=16.6
binder="AAV-binding protein No. 30 (Glu340Gly, Tyr342Cys) (receptor) MGSAGESVQITLPKNEVQLNAYVLQEPPKGGTCTYDWQLITHPRDYSGEMEGKHSQILKLSKLTPGLYEFKVIVEGQNAHGEGYVNVTVKPEPRKNRPPIAIVSPQFQEISLPTTSTVIDGSQSTDDDKIVQYHWEELKGPLREEKISEDTAILKLSKLVPGNYTFSLTVVDSDGATNSTTANLTVNKAVDHHHHHH" reported_metric="Residual activity [%]" measured_number=56.1

// below: Residual activity [%] requested for another binder
q: Request the reported Residual activity [%] associated with wild-type AAV-binding protein (extracellular domains 1 and 2, PKD1 and PKD2, of KIAA0319L/AAVR, positions 312-500 of SEQ ID NO: 1, with His tag) (receptor, Expressed in E. coli; tested as extract, culture supernatant or purified protein; also called wild-type AVR; product of pET-AAVRD2) MGSAGESVQITLPKNEVQLNAYVLQEPPKGETYTYDWQLITHPRDYSGEMEGKHSQILKLSKLTPGLYEFKVIVEGQNAHGEGYVNVTVKPEPRKNRPPIAIVSPQFQEISLPTTSTVIDGSQSTDDDKIVQYHWEELKGPLREEKISEDTAILKLSKLVPGNYTFSLTVVDSDGATNSTTANLTVNKAVDHHHHHH
a: 5.1

The reported numbers originate from patent US20220402995A1.
